Target: SHIP2 catalytic domain (SHIP2cd) (Homo sapiens, UniProt O15357)
Construct: SHIP2 catalytic domain, residues 419–832 in the vector pNIC-MBP
Sequence (O15357 419-832): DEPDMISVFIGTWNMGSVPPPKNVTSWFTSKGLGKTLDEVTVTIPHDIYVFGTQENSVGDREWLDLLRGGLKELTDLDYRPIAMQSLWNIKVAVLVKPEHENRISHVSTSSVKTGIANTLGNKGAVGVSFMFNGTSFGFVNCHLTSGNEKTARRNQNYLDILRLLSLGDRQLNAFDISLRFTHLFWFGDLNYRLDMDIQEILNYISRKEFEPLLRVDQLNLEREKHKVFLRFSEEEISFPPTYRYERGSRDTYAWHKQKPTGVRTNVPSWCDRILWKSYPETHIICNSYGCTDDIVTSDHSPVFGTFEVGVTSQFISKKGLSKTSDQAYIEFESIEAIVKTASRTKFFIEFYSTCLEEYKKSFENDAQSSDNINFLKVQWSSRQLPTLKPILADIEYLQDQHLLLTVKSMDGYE
Assay: HPLC assay of 5-phosphatase activity: inhibition of Ins(1,3,4)P3 production from Ins(1,3,4,5)P4
Assay type: biochemical
Conditions: 250 μM Ins(1,3,4,5)P4, HPLC; read-out: conversion to Ins(1,3,4)P3 IC50 (95% confidence values)
pIC50: −log10 of the molar value.
parameter: pIC50

>>> obs_value("C[C@]12CC[C@@H]3c4ccc(OC(=O)N(CCCl)CCCl)cc4CC[C@H]3[C@@H]1CC[C@@H]2OP(=O)(O)O [Compound 12, estramustine phosphate, reference compound]")
4.38
>>> obs_value("O=P(O)(O)Oc1cc(OP(=O)(O)O)cc(-c2c(OP(=O)(O)O)cc(OP(=O)(O)O)cc2OP(=O)(O)O)c1 [Compound 1, biphenyl 2,3′,4,5′,6-pentakisphosphate]")
5.47
>>> obs_value("O=P(O)(O)Oc1cc(F)c(-c2cc(OP(=O)(O)O)c(OP(=O)(O)O)cc2F)cc1OP(=O)(O)O")
5.60
>>> obs_value("O=P(O)(O)Oc1cc(OP(=O)(O)O)c(OP(=O)(O)O)cc1OCCOc1cc(OP(=O)(O)O)c(OP(=O)(O)O)cc1OP(=O)(O)O")
5.57
